B1: TRAF3IP2 (parent)
chain: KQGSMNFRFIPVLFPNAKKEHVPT

# Variants of: B1
# test_details: protein stability index of a GFP-peptide fusion (GPS, HEK-293T) (PSI 1-6); higher = more stable;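 also: lentivirally expressed fusions sorted by FACS into six bins by GFP to DsRed ratio, PSI derived from sequencing read proportions per bin multiplied by bin number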
# condition: c terminus: a fixed tail appended
reported_endpoint: protein stability index
Give the value as a plain number.

Lab book: protein stability index of F9G noted as 3.17

Lab book: protein stability index of N16E noted as 1.85

Lab book: protein stability index of F9I noted as 2.06

***
Lab book: protein stability index of L13S noted as 2.14

Lab book: protein stability index of P15S noted as 1.75

Lab book: protein stability index of P11I noted as 3.73

meta.source: the supplement of paper PMC10567573
